- Tested on: hLiMTs
- assay protocol: Combined HCI (HCS) and cellular ATP 3D assay in hLiMTs
- recorded conditions: hLiMTs; all endpoints; Cmax min used
experimental readout: hLiMTs Cmax min All

molecule | target | experimental readout | endpoint value
C#CCN(C)Cc1ccccc1 | hLiMTs | hLiMTs Cmax min All | -ve
CCc1ccc(CCOc2ccc(CC3SC(=O)NC3=O)cc2)nc1 (stereo not drawn) [pioglitazone, reference compound] | hLiMTs | hLiMTs Cmax min All | +ve
CN(C)CCC(c1ccc(Cl)cc1)c1ccccn1 (stereo not drawn) | hLiMTs | hLiMTs Cmax min All | -ve
NC(=O)N1c2ccccc2C=Cc2ccccc21 [carbamazepine, reference compound] | hLiMTs | hLiMTs Cmax min All | +ve

Report hLiMTs Cmax min All for every entry below.
1. O=C(O)Cc1ccccc1Nc1c(Cl)cccc1Cl
2. CCc1nn(CCCN2CCN(c3cccc(Cl)c3)CC2)c(=O)n1CCOc1ccccc1 [nefazodone, reference compound]

A.
+ve
+ve

* * *

- Tested on: hLiMTs
- assay protocol: Combined HCI (HCS) and cellular ATP 3D assay in hLiMTs
- recorded conditions: hLiMTs; HCS endpoints; cut-off <100x Avg Cmaxu
experimental readout: hLiMTs <100x Avg Cmaxu HCS

Solved entries (count: 8):
molecule | hLiMTs <100x Avg Cmaxu HCS
CCN(CC)C(=O)/C(C#N)=C/c1cc(O)c(O)c([N+](=O)[O-])c1 [entacapone] | -ve
O=C(O)Cc1ccccc1Nc1c(Cl)cccc1Cl [diclofenac] | -ve
NC(=O)N1c2ccccc2C=Cc2ccccc21 [carbamazepine, reference compound] | +ve (<100x Avg Cmaxu)
CCCC(CCC)C(=O)O [valproic acid] | +ve (<100x Avg Cmaxu)
Cc1ccc(C(=O)c2cc(O)c(O)c([N+](=O)[O-])c2)cc1 [tolcapone, reference compound] | -ve
C[N+](C)(C)CC(=O)O [betaine, reference compound] | -ve
Nc1cc(N2CCCCC2)nc(N)[n+]1[O-] [minoxidil] | +ve (<100x Avg Cmaxu)
CN1CCN(C2=Nc3cc(Cl)ccc3Nc3ccccc32)CC1 [clozapine] | +ve (<100x Avg Cmaxu)

Observed hLiMTs <100x Avg Cmaxu HCS on hLiMTs, entry COc1ccccc1Oc1c(NS(=O)(=O)c2ccc(C(C)(C)C)cc2)nc(-c2ncccn2)nc1OCCO [bosentan] , equals -ve

* * *

- Test system: HepaRG spheroids
- assay protocol: Combined HCI (HCS) and cellular ATP 3D assay in HepaRG spheroids
- recorded conditions: HepaRG; HCS endpoints; cut-off <25x Avg Cmax
experimental readout: HepaRG <25x Avg Cmax HCS

Solved entries (count: 4):
molecule | experimental readout | endpoint value
CN(C)C(=O)Oc1cccc([N+](C)(C)C)c1 | HepaRG <25x Avg Cmax HCS | -ve
CNC1(C)C2CCC(C2)C1(C)C (centres unmarked) | HepaRG <25x Avg Cmax HCS | -ve
CC(C)(C)NCC(O)COc1cccc2c1CC(O)C(O)C2 (centres unmarked) | HepaRG <25x Avg Cmax HCS | -ve
CCCC(CCC)C(=O)O | HepaRG <25x Avg Cmax HCS | +ve

Report HepaRG <25x Avg Cmax HCS for every entry below.
1. CCN(CC)CCNC(=O)c1c(C)[nH]c(/C=C2\C(=O)Nc3ccc(F)cc32)c1C
2. Cc1ccc(N(CC2=NCCN2)c2cccc(O)c2)cc1
3. N[C@@H]1[C@H]2CN(c3nc4c(cc3F)c(=O)c(C(=O)O)cn4-c3ccc(F)cc3F)C[C@@H]12

A.
1: +ve; 2: -ve; 3: +ve

* * *

- Tested on: HepaRG spheroids
- assay protocol: Combined HCI (HCS) and cellular ATP 3D assay in HepaRG spheroids
- recorded conditions: Microtissue model structural based (HCI); combined HCS and ATP, MEC < 25 × Cmax.tot cut-off
experimental readout: DILI prediction HepaRG spheroids (HCS-MEC)

compound | endpoint value
CCN(CC)CC#CCOC(=O)C(O)(c1ccccc1)C1CCCCC1 (centres unmarked) | -VE
N[C@@H](Cc1cc(I)c(Oc2ccc(O)c(I)c2)c(I)c1)C(=O)O | -VE
Cc1ccc(N(CC2=NCCN2)c2cccc(O)c2)cc1 | -VE

* * *

- System: HepaRG spheroids
- assay protocol: Combined HCI (HCS) and cellular ATP 3D assay in HepaRG spheroids
- recorded conditions: HepaRG; ATP endpoint; cut-off <100x Avg Cmaxu

compound | HepaRG <100x Avg Cmaxu ATP
CCc1nn(CCCN2CCN(c3cccc(Cl)c3)CC2)c(=O)n1CCOc1ccccc1 [nefazodone, reference compound] | -ve
O=C1CC2(CCCC2)CC(=O)N1CCCCN1CCN(c2ncccn2)CC1 [buspirone, reference compound] | -ve
Cc1ccc(N(CC2=NCCN2)c2cccc(O)c2)cc1 [phentolamine] | -ve
CC(COc1ccccc1)N(CCCl)Cc1ccccc1 (centres unmarked) [phenoxybenzamine] | -ve

* * *

- System: HepaRG spheroids
- assay protocol: Combined HCI (HCS) and cellular ATP 3D assay in HepaRG spheroids
- recorded conditions: HepaRG; HCS endpoints; cut-off <100x Avg Cmaxu
experimental readout: HepaRG <100x Avg Cmaxu HCS

Solved entries (count: 10):
molecule | HepaRG <100x Avg Cmaxu HCS
Cn1cnc([N+](=O)[O-])c1Sc1ncnc2nc[nH]c12 [azathioprine] | +ve (<100x Avg Cmaxu)
CCc1ccc(CCOc2ccc(CC3SC(=O)NC3=O)cc2)nc1 (centres unmarked) [pioglitazone, reference compound] | -ve
CN(Cc1cnc2nc(N)nc(N)c2n1)c1ccc(C(=O)N[C@@H](CCC(=O)O)C(=O)O)cc1 [methotrexate, reference compound] | +ve (<100x Avg Cmaxu)
CC(=O)N1CCN(c2ccc(OCC3COC(Cn4ccnc4)(c4ccc(Cl)cc4Cl)O3)cc2)CC1 (centres unmarked) [ketoconazole, reference compound] | +ve (<100x Avg Cmaxu)
CCc1nn(CCCN2CCN(c3cccc(Cl)c3)CC2)c(=O)n1CCOc1ccccc1 [nefazodone, reference compound] | -ve
O=C1CC2(CCCC2)CC(=O)N1CCCCN1CCN(c2ncccn2)CC1 [buspirone, reference compound] | -ve
O=c1[nH]c(=O)n([C@@H]2O[C@H](CO)[C@@H](O)[C@@H]2F)cc1I [fialuridine] | +ve (<100x Avg Cmaxu)
Cc1c(C)c2c(c(C)c1O)CCC(C)(COc1ccc(CC3SC(=O)NC3=O)cc1)O2 (centres unmarked) [troglitazone, reference compound] | -ve
C#CCN(C)Cc1ccccc1 [pargyline] | -ve
NNC(=O)c1ccncc1 [isoniazid, reference compound] | +ve (<100x Avg Cmaxu)

Next up:
# HepaRG <100x Avg Cmaxu HCS (molecule: CCN(CC)CCNC(=O)c1c(C)[nH]c(/C=C2\C(=O)Nc3ccc(F)cc32)c1C [sunitinib] ) is +ve (<100x Avg Cmaxu)

* * *

- Test system: hLiMTs
- assay protocol: Combined HCI (HCS) and cellular ATP 3D assay in hLiMTs
- recorded conditions: hLiMTs; all endpoints; cut-off <100x Avg Cmaxu
experimental readout: hLiMTs <100x Avg Cmaxu All

Solved entries (count: 5):
compound | hLiMTs <100x Avg Cmaxu All
CC[C@H]1OC(=O)[C@H](C)[C@@H](O[C@H]2C[C@@](C)(OC)[C@@H](O)[C@H](C)O2)[C@H](C)[C@@H](O[C@@H]2O[C@H](C)C[C@H](N(C)C)[C@H]2O)[C@](C)(O)C[C@@H](C)C(=O)[C@H](C)[C@@H](O)[C@]1(C)O [erythromycin] | -ve
CC(COc1ccccc1)N(CCCl)Cc1ccccc1 (centres unmarked) [phenoxybenzamine] | -ve
NNC(=O)c1ccncc1 [isoniazid, reference compound] | -ve
C#CCN(C)Cc1ccccc1 [pargyline] | -ve
Cc1ccc(N(CC2=NCCN2)c2cccc(O)c2)cc1 [phentolamine] | -ve

Report hLiMTs <100x Avg Cmaxu All for every entry below.
1. CC(=O)Oc1ccccc1C(=O)O [acetylsalicylic acid]
2. CN1CCN(C2=Nc3cc(Cl)ccc3Nc3ccccc32)CC1 [clozapine]
3. CC(C)C(=O)Nc1ccc([N+](=O)[O-])c(C(F)(F)F)c1 [flutamide, reference compound]
4. Cc1cc2c(cc1CC(=O)c1sccc1S(=O)(=O)Nc1onc(C)c1Cl)OCO2 [sitaxsentan]
5. CC(=O)N1CCN(c2ccc(OCC3COC(Cn4ccnc4)(c4ccc(Cl)cc4Cl)O3)cc2)CC1 (centres unmarked) [ketoconazole, reference compound]

A.
1: +ve (<100x Avg Cmaxu); 2: +ve (<100x Avg Cmaxu); 3: +ve (<100x Avg Cmaxu); 4: -ve; 5: +ve (<100x Avg Cmaxu)

Report hLiMTs <100x Avg Cmaxu All for every entry below.
1. O=C1CN(/N=C/c2ccc(-c3ccc([N+](=O)[O-])cc3)o2)C(O)=N1 [dantrolene]
2. CCCC(CCC)C(=O)O [valproic acid]
3. NC(=O)N1c2ccccc2C=Cc2ccccc21 [carbamazepine, reference compound]
4. CN(C)C(=N)N=C(N)N [metformin]
5. CC(C)(C)NCC(O)COc1cccc2c1CC(O)C(O)C2 (centres unmarked) [nadolol]
6. CN(C)CCCN1c2ccccc2Sc2ccc(Cl)cc21 [chlorpromazine, reference compound]
7. CCc1nn(CCCN2CCN(c3cccc(Cl)c3)CC2)c(=O)n1CCOc1ccccc1 [nefazodone, reference compound]

A.
+ve (<100x Avg Cmaxu)
+ve (<100x Avg Cmaxu)
+ve (<100x Avg Cmaxu)
+ve (<100x Avg Cmaxu)
-ve
+ve (<100x Avg Cmaxu)
-ve
